Origin of values: ChEMBL document CHEMBL1201862

Test system: HT-29
experimentSummary: NCI tumour cell line growth inhibition, 48 h
The source made the active and inactive calls. Rule as the data show it: active = GI50 up to about 1.1 µM and inactive = higher.
Parameter call: string, one of 1 (yes) for active, 0 (no) for inactive

compound	cat
COc1ccc(C(OCC2OC(n3ccc(Oc4c(F)c(F)c(F)c(F)c4F)nc3=O)CC2OP(OCCC#N)N(C(C)C)C(C)C)(c2ccccc2)c2ccc(OC)cc2)cc1 (stereo unspecified)	0 (no)
N#Cc1c(/C=C/c2ccccc2)c2c([nH]c1=S)CCCCC2	0 (no)
Cc1cc(C)nc(NS(=O)(=O)c2ccc(Nc3c4ccccc4nc4c(C(=O)N5CCN(CCO)CC5)ccc(Cl)c34)cc2)n1	0 (no)

Please share the test call associated with C=CCC1(OC(C)=O)C2OC(=O)C1(O)OCC2O (stereo unspecified) . 0 (no)

Please share the test call associated with "NC(=O)OCc1c(-c2ccccc2)nn(-c2ccccc2)c1COC(N)=O" . 0 (no)

Please share the test call associated with CC(C)Cc1ccc(C(C)/C=C2\CCC(CN3CCOCC3)C2=O)cc1 (stereo unspecified) . 0 (no)

Please share the test call associated with "NC(=O)NC(=O)c1cccc(NC(=O)CCl)c1" . 1 (yes)

---

Test system: HOP-92
experimentSummary: NCI tumour cell line growth inhibition, 48 h
Calls of active or inactive are those of the source. Cut-off read from the data, not from the text of the source: active = GI50 up to about 1.1 µM and inactive = higher.
GI50 reference

Fill in: GI50 of O=C(O)CCC(NC(=O)c1ccccc1)C(=O)O (centres undefined) is ___ > 100 µM (inactive)

Fill in: GI50 of "O=C(CCN(C(=O)O)S(=O)(=O)c1ccc(NC(=O)c2ccccc2)cc1)Nc1ccccc1" is ___ > 100 µM (inactive)

Fill in: GI50 of CC/C=C\C/C=C\C/C=C\CCCCCCCC(=O)OC(COC(=O)CCCCCCCCCCCCCCCCC)COC1OC(CO)C(O)C(O)C1O (centres undefined) is ___ > 25 µM (inactive)

Fill in: GI50 of "O=C(O)COc1c(Cl)cc(Cl)c(C(c2c(Cl)cc(Cl)c(OCC(=O)O)c2Cl)C(Cl)(Cl)Cl)c1Cl" is ___ 25.2 µM (inactive)

Fill in: GI50 of "Cc1cc(-c2nc3ccccc3s2)ccc1NC(=O)[C@H](C)N" is ___ 15.7 µM (inactive)

Fill in: GI50 of "Cc1ccc2c(c1)SC1=Nc3sc4cc(C)ccc4[n+]3CN12" is ___ 2.97 µM (inactive)

Fill in: GI50 of "CCOC(=O)/C=C(\C(=O)OCC)n1ccc(=O)[nH]c1=O" is ___ 2.55 µM (inactive)

Fill in: GI50 of "C/C(=N\NC(=O)c1ccccc1O)c1cccc(/C(C)=N/NC(=O)c2ccccc2O)n1.[Cl-].[Cl-].[Zn+2]" is ___ 10.6 µM (inactive)

Fill in: GI50 of "COc1ccc(-c2cc(-c3ccccc3)nc(N)n2)c(O)c1" is ___ > 43 µM (inactive)

---

GI50 reference
System: HCT-15
Residues, ends and D or L forms follow the SMILES beside them.

compound	GI50
CCC(C)C(NC(=O)C(CC(C)C)NC(=O)CNC(=O)C(NC(=O)C1CCCN1C(=O)C(CC(C)C)NC(=O)C(N)Cc1ccccc1)C(C)CC)C(=O)NC(CC(C)C)C(N)=O (centres undefined) (H-FLPIGLIL-NH2; configuration not given here)	> 75 µM

Fill in: GI50 of "N#Cc1c(/C=C/c2ccccc2)c2c([nH]c1=S)CCCCC2" is ___ > 100 µM

Fill in: GI50 of "Oc1ccc(O)c(Sc2nnc(CCCCCCCCc3nnc(Sc4cc(O)ccc4O)o3)o2)c1" is ___ 88.7 µM

Fill in: GI50 of NC1CC2C3CCC2C1C3=O (centres undefined) is ___ > 100 µM

Fill in: GI50 of "CC1(C)CC(=O)c2c(nc3c(ccc4ccccc43)c2-c2ccc(NC(=O)CCC(=O)Nc3ccc(-c4c5c(nc6c4ccc4ccccc46)CC(C)(C)CC5=O)cc3)cc2)C1" is ___ > 100 µM
